- Assay Target: human mAChR M1 (Homo sapiens)
- Sequence (P11229 whole entry): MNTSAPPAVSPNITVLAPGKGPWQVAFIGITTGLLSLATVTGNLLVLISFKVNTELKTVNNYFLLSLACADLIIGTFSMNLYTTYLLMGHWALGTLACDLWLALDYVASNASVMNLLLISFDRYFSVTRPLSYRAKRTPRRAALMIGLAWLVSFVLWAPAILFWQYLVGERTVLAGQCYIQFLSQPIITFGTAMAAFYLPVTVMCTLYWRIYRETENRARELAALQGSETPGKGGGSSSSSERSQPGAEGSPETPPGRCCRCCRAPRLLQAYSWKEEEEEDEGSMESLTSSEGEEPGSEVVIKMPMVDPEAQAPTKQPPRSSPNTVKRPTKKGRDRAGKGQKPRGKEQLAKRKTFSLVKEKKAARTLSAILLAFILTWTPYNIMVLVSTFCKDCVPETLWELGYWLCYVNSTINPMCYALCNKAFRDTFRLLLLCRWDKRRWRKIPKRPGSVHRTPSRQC
- Test Summary: mAChR M1 cell-based functional assay (calcium mobilization), PAM activity: increase in the EC20 acetylcholine response
- Details: CHO-K1 cells expressing hM1; calcium flux (Fluo-4); potentiation of EC20 acetylcholine response
Measured Quantity: EC50 (nM)

A: Cc1nc(-c2ccc(Cc3cc(C(=O)N[C@H]4CCOC[C@@H]4O)nc(-n4cccn4)c3C)cc2)co1
B: Cc1c(Cc2ccc(-c3ccn(C)n3)cc2)cc(C(=O)N[C@H]2CCOC[C@@H]2O)nc1-n1cccn1
C: Cc1c(Cc2ccc(-c3ccn(C)n3)cc2)cc(C(=O)NC2CCOCC2(C)C)nc1-c1ccn(C)n1 (centres unmarked)
D: Cc1c(Cc2ccc(-c3ccn(C)n3)cc2)cc(C(=O)NC2CC3(COC3)C2)nc1-c1ccn(C)n1
E: Cn1ccc(-c2ccc(Cc3cc(C(=O)N[C@H]4CCOC[C@@H]4O)nc(-c4ccn(C)n4)c3)cc2)n1
Query: Kindly sort the 5 compounds above from the smallest to the largest EC50. Would you mind listing the labels in the order requested?
Reply: B, A, E, C, D
(B: 317 nM, A: 863 nM, E: 1560 nM, C: 2260 nM, D: 4720 nM)

I: Cc1c(Cc2ccc(-c3ccn(C)n3)nc2)cc(C(=O)N[C@H]2CCCC[C@@H]2O)nc1-n1cccn1
II: Cc1c(Cc2ccc(-n3cccn3)cc2)cc(C(=O)N[C@H]2CCOC[C@@H]2O)nc1-c1ccn(C)n1
Query: Which record shows the lower EC50: the first, I , or the second, II ? Please reply using the label of the selected record.
Reply: II

I: Cc1c(Cc2ccc(-c3cnn(C)c3)nc2)cc(C(=O)N[C@H]2CCCC[C@@H]2O)nc1-n1cccn1
II: Cc1c(Cc2ccc(-n3cccn3)cc2)cc(C(=O)NC[C@@H]2CCCO2)nc1-c1ccn(C)n1
Query: Between the two listed entries I and II , which has its EC50 at the higher number? Your answer should be the label attached to the chosen record.
Reply: II

P: Cc1nc(-c2ccc(Cc3cc(C(=O)N[C@H]4CCCC[C@@H]4O)nc(-n4cccn4)c3C)cc2)co1
Q: Cc1c(Cc2ccc(-c3ccn(C)n3)cc2)cc(C(=O)N[C@H]2CCC[C@@H]2O)nc1-c1ccn(C)n1
R: Cc1c(Cc2ccc(-c3ccn(C)n3)cc2)cc(C(=O)NC[C@@H]2CCCO2)nc1-c1ccn(C)n1
S: Cc1c(Cc2ccc(-c3ccn(C)n3)cc2)cc(C(=O)N[C@H]2CCC[C@@H]2O)nc1-n1cccn1
Query: Sort entries by EC50 from minimum to maximum value. The labels, placed in the requested order, form the answer.
Reply: P, S, Q, R
(P: 832 nM, S: 1300 nM, Q: 1970 nM, R: 4610 nM)

1: Cc1nc(-c2ccc(Cc3cc(C(=O)N[C@H]4CCCC[C@@H]4O)nc(-n4cccn4)c3)cc2)co1
2: Cc1c(Cc2ccc(-c3ccn(C)n3)nc2)cc(C(=O)N[C@H]2CCOC[C@@H]2O)nc1-n1cccn1
Query: // compare measured EC50, left 1 , right 2 , return larger # answer = label of selected item
Reply: 2

P: Cc1c(Cc2ccc(-n3cccn3)cc2)cc(C(=O)N[C@H]2CCC[C@@H]2O)nc1-c1ccn(C)n1
Q: Cn1cc(-c2ccc(Cc3cc(C(=O)N[C@H]4CCOC[C@@H]4O)nc(-n4cccn4)c3)cn2)cn1
R: Cc1c(Cc2ccc(-c3ccn(C)n3)nc2)cc(C(=O)N[C@H]2CCC[C@@H]2O)nc1-n1cccn1
S: Cc1c(Cc2ccc(-c3ccn(C)n3)cc2)cc(C(=O)N[C@H]2CCOC[C@@H]2O)nc1-c1ccn(C)n1
T: Cn1cc(-c2ccc(Cc3cc(C(=O)NC4CCOCC4(C)C)nc(-c4ccn(C)n4)c3)cn2)cn1 (centres unmarked)
Query: Sort (5 compounds) by EC50: min first. Response format: the labels, sorted as the prompt asks.
Reply: S, Q, P, R, T

P: Cc1nc(-c2ccc(Cc3cc(C(=O)N[C@H]4CCOC[C@@H]4O)nc(-n4cccn4)c3)cc2)co1
Q: Cn1cc(-c2cc(Cc3ccc(-c4ccn(C)n4)cc3)cc(C(=O)N[C@H]3CCOC[C@@H]3O)n2)cn1
R: Cc1c(Cc2ccc(-c3ccn(C)n3)cc2)cc(C(=O)N[C@H]2CCCC[C@@H]2O)nc1-c1ccn(C)n1
S: Cc1c(Cc2ccc(-c3ccn(C)n3)cc2)cc(C(=O)N[C@H]2CC[C@@H]2O)nc1-c1ccn(C)n1
Query: Order the 4 compounds from highest to lowest EC50. To answer, write out the labels according to the requested order.
Reply: S, Q, P, R
(S: 7990 nM, Q: 2850 nM, P: 1970 nM, R: 910 nM)

P: Cn1cc(-c2ccc(Cc3cc(C(=O)N[C@H]4CCCC[C@@H]4O)nc(-c4ccn(C)n4)c3)cn2)cn1
Q: Cn1ccc(-c2ccc(Cc3cc(C(=O)N[C@H]4CCCC[C@@H]4O)nc(-c4ccn(C)n4)c3)cc2)n1
Query: Endpoint returns whichever of P and Q has the numerically higher EC50. I would appreciate it if you answered with the label of your choice.
Reply: P

---

This section presents molecules with their documented pEC50 values.
- Assay Target: human mAChR M1 (Homo sapiens)
- Test Summary: mAChR M1 cell-based functional assay (calcium mobilization), agonist activity upon compound addition alone
- Details: CHO-K1 cells expressing hM1; calcium mobilization upon compound addition, no acetylcholine
pEC50: −log10 of the molar value.

Before answering, review these 2 worked examples.
Molecule	Meas Value
Cc1ccc(Cc2cc(C(=O)N[C@H]3CCC[C@@H]3O)nc(-c3ccn(C)n3)c2C)cn1 [Compound 67]	< 5.00
Cn1cc(-c2ccc(Cc3cc(C(=O)N[C@H]4CCCC[C@@H]4O)nc(-n4cccn4)c3)cn2)cn1 [Compound 20]	< 5.00

Query: For the molecule Cn1ccc(-c2ccc(Cc3cc(C(=O)NC4CC5(COC5)C4)nc(-c4ccn(C)n4)c3)cc2)n1 [Compound 36] , what pEC50 is on record?
Reply: < 5.00

Query: Likewise for Cc1nc(-c2ccc(Cc3cc(C(=O)NC4CC5(COC5)C4)nc(-n4cccn4)c3)cc2)co1 [Compound 23] ?
Reply: < 5.00

---

- Assay Target: human mAChR M1 (Homo sapiens)
- Test Summary: mAChR M1 cell-based functional assay (calcium mobilization), PAM activity: increase in the EC20 acetylcholine response
- Details: CHO-K1 cells expressing hM1; calcium flux (Fluo-4); potentiation of EC20 acetylcholine response
Measured Quantity: Emax (%)

a: Cn1cc(-c2ccc(Cc3cc(C(=O)NC4CCOCC4)nc(-n4cccn4)c3)cn2)cn1
b: Cc1c(Cc2ccc(-n3cccn3)cc2)cc(C(=O)NC2CCOCC2(C)C)nc1-c1ccn(C)n1 (centres unmarked)
Query: # min-compare on Emax between a and b Response format: the label of the selected entry.
Reply: a
(a: 47%, b: 91%)

---

- Assay Target: human mAChR M1 (Homo sapiens)
- Test Summary: mAChR M1 cell-based functional assay (calcium mobilization), PAM activity: increase in the EC20 acetylcholine response
- Details: CHO-K1 cells expressing hM1; calcium flux (Fluo-4); potentiation of EC20 acetylcholine response
Measured Quantity: EC50 (µM)

Solved cases (4 shown):
Compound	Assay Target	EC50 / µM
Cn1ccc(-c2ccc(Cc3cc(C(=O)N[C@H]4CCC[C@@H]4O)nc(-c4ccn(C)n4)c3)cc2)n1 [Compound 38]	human mAChR M1 (Homo sapiens)	2.72
Cn1ccc(-c2ccc(Cc3cc(C(=O)N[C@H]4CCOC[C@@H]4O)nc(-n4cccn4)c3)cc2)n1 [Compound 28]	human mAChR M1 (Homo sapiens)	1.07
Cc1c(Cc2ccc(-c3ccn(C)n3)cc2)cc(C(=O)NC2CCOCC2)nc1-c1ccn(C)n1 [Compound 1]	human mAChR M1 (Homo sapiens)	8.72
Cn1ccc(-c2ccc(Cc3cc(C(=O)N[C@H]4CCC[C@@H]4O)nc(-n4cccn4)c3)cc2)n1 [Compound 33]	human mAChR M1 (Homo sapiens)	5.51

a: Cc1c(Cc2ccc(-c3cnn(C)c3)nc2)cc(C(=O)N[C@H]2CCC[C@@H]2O)nc1-n1cccn1 [Compound 53]
b: Cc1c(Cc2ccc(-n3cccn3)cc2)cc(C(=O)N[C@H]2CCCC[C@@H]2O)nc1-c1ccn(C)n1 [Compound 56]
c: Cn1ccc(-c2ccc(Cc3cc(C(=O)N[C@H]4CCCC[C@@H]4O)nc(-n4cccn4)c3)cc2)n1 [Compound 29]
d: Cn1cc(-c2cc(Cc3ccc(-c4ccn(C)n4)cc3)cc(C(=O)N[C@H]3CCCC[C@@H]3O)n2)cn1 [Compound 40]
e: Cc1c(Cc2ccc(-n3cccn3)cc2)cc(C(=O)NC2CCOCC2)nc1-c1ccn(C)n1 [Compound 57]
Query: Hi! Can you put these in order of EC50, lowest number first? Returns: the labels arranged in the requested order.
Reply: b, c, a, e, d

Reference for the values: patent US11851406B2
